The origin of these recorded values is ChEMBL document CHEMBL2311311.

Exercise: for every item that follows, state its recorded Ratio.
test system: Pseudomonas aeruginosa; experiment: Ratio of ciprofloxacin MIC to compound MIC for Pseudomonas aeruginosa ATCC 9027 by broth microdilution method; type: functional

Answered cases to consult:
LINE_NOTATION	TARGET_ENTITY	Ratio
O=C(O)c1cn(C2CC2)c2cc(N3CCN(Cn4nc(-c5cccc(O)c5)n(-c5cc(Cl)cc(Cl)c5)c4=S)CC3)c(F)cc2c1=O	Pseudomonas aeruginosa	8
O=C(O)c1cn(C2CC2)c2cc(N3CCN(Cn4nc(-c5cccc(O)c5)n(-c5cccc([N+](=O)[O-])c5)c4=S)CC3)c(F)cc2c1=O	Pseudomonas aeruginosa	4
O=C(O)c1cn(C2CC2)c2cc(N3CCN(Cn4nc(-c5cccc(O)c5)n(-c5cccc(I)c5)c4=S)CC3)c(F)cc2c1=O	Pseudomonas aeruginosa	8

Moving on to another compound below.
Measured Ratio of `O=C(O)c1cn(C2CC2)c2cc(N3CCN(Cn4nc(-c5cccc(O)c5)n(-c5ccc(Cl)cc5Cl)c4=S)CC3)c(F)cc2c1=O` : 8
